Here, each record is paired with measured protein stability index data.
B1: ZC3H15 (parent)
chain: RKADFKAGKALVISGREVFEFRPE

Variants of: B1
Assay: protein stability index of a GFP-peptide fusion (GPS, HEK-293T) (PSI 1-6); higher = more stable;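 note: lentivirally expressed fusions sorted by FACS into six bins by GFP to DsRed ratio, PSI derived from sequencing read proportions per bin multiplied by bin number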
Details: c terminus: a fixed tail appended

- mutation.code: "G8S"
  protein stability index: 2.7
- mutation.code: "E17S"
  protein stability index: 2.06
- mutation.code: "K9E"
  protein stability index: 3.11
- mutation.code: "D4W"
  protein stability index: 1.73
- mutation.code: "K9H"
  protein stability index: 2.93
- mutation.code: "R16N"
  protein stability index: 3.63
- mutation.code: "K9N"
  protein stability index: 3.16
- mutation.code: "P23Y"
  protein stability index: 1.9

All values here come from the supplement of paper PMC10567573.
